# Particulars: fish
Please provide measured log10 BCF for the entries that follow.
Answer with a number only.

Fill blank: measured log10 BCF of the compound Clc1cc2c(cc1Cl)Oc1c(cc(Cl)c(Cl)c1Cl)O2 is ____.
4.26

Fill blank: measured log10 BCF of the compound Brc1ccc(Oc2ccc(Br)c(Br)c2)cc1Br is ____.
6.29

Fill blank: measured log10 BCF of the compound CC(C)(C)c1ccc(O)cc1 is ____.
1.83

Fill blank: measured log10 BCF of the compound CN(C)C(=S)SSC(=S)N(C)C is ____.
0.53

Fill blank: measured log10 BCF of the compound Oc1c(Cl)cc(Cl)c(Cl)c1Cl is ____.
2.3

Fill blank: measured log10 BCF of the compound O=C(Nc1ccc2c(O)cc(S(=O)(=O)O)cc2c1)Nc1ccc2c(O)cc(S(=O)(=O)O)cc2c1 is ____.
0.26

Fill blank: measured log10 BCF of the compound C=COCC(CC)CCCC (centres undefined) is ____.
2.78

Fill blank: measured log10 BCF of the compound CCCCCCCCCCCCCCCC is ____.
3.7

Fill blank: measured log10 BCF of the compound NCc1cccc(CN)c1 is ____.
0.43

Fill blank: measured log10 BCF of the compound O=C(Nc1ccccc1)c1cc2ccccc2cc1O is ____.
0.81

Fill blank: measured log10 BCF of the compound BrC(Br)C(Br)Br is ____.
0.74

Fill blank: measured log10 BCF of the compound Cc1ccc(N)cc1N is ____.
1.7

Fill blank: measured log10 BCF of the compound CCNc1ccccc1 is ____.
1.11

Fill blank: measured log10 BCF of the compound O=C1C2(Cl)C3(Cl)C4(Cl)C(Cl)(Cl)C5(Cl)C3(Cl)C1(Cl)C5(Cl)C24Cl (centres undefined) is ____.
3.19

Fill blank: measured log10 BCF of the compound Oc1ccc(Br)cc1 is ____.
1.17

Fill blank: measured log10 BCF of the compound Clc1c(Cl)c(Cl)c2c(c1Cl)Oc1ccccc1O2 is ____.
3.46

Fill blank: measured log10 BCF of the compound ClC(Cl)=C(Cl)Cl is ____.
1.72

Fill blank: measured log10 BCF of the compound CC(C)C1=CC2=C(CC1)[C@@]1(C)CCC[C@@](C)(C(=O)O)[C@@H]1CC2 is ____.
1.4

Fill blank: measured log10 BCF of the compound CC(Cl)CCl (centres undefined) is ____.
0.85

Fill blank: measured log10 BCF of the compound CNc1cccc(C)c1 is ____.
0.86

Fill blank: measured log10 BCF of the compound Clc1cccc(-c2cccc(Cl)c2Cl)c1Cl is ____.
4.23

Fill blank: measured log10 BCF of the compound FC(F)(Cl)Cl is ____.
0.79

Fill blank: measured log10 BCF of the compound Clc1cc2oc3c(Cl)c(Cl)c(Cl)cc3c2cc1Cl is ____.
4.13

Fill blank: measured log10 BCF of the compound ClC(Cl)=C(Cl)C(Cl)=C(Cl)Cl is ____.
3.82

====

Please provide measured melting point for the entries that follow.
Number plus unit, in that order.

Fill blank: measured melting point of the compound N#Cc1nc(C#N)nc(C#N)n1 is ____.
119 °C

Fill blank: measured melting point of the compound CCCCCCCCCCCCCC1CCCCC1 is ____.
18.5 °C

Fill blank: measured melting point of the compound CC1(C)[C@H](C=C(Cl)Cl)[C@H]1C(=O)OCc1c(F)c(F)cc(F)c1F is ____.
32 °C

Fill blank: measured melting point of the compound CC(=O)c1c(O)c(C)c(O)c2c1OC1=CC(=O)C(C(C)=O)C(=O)C12C (stereo not given) is ____.
204 °C

Fill blank: measured melting point of the compound CP(=O)(O)CCC(N)C(=O)[O-].[NH4+] (stereo not given) is ____.
215 °C

Fill blank: measured melting point of the compound CC=CC(C)C is ____.
-130 °C

Fill blank: measured melting point of the compound C=C(C)c1ccc(C(C)C)cc1 is ____.
-30.6 °C

Fill blank: measured melting point of the compound c1ccc2c(c1)ccc1cccnc12 is ____.
52 °C

Fill blank: measured melting point of the compound O=C(O)CCC(=O)c1ccccc1 is ____.
118 °C

Fill blank: measured melting point of the compound Cc1c(N(C)C)c(=O)n(-c2ccccc2)n1C is ____.
134 °C

Fill blank: measured melting point of the compound Oc1ccc(Cl)cc1Sc1cc(Cl)ccc1O is ____.
174 °C

Fill blank: measured melting point of the compound O=C(CO)c1ccccc1 is ____.
90 °C

Fill blank: measured melting point of the compound CC(=O)O[C@@H]1C[C@]2(O)[C@H](CC[C@]3(C)[C@@H](c4ccc(=O)oc4)CC[C@@]32O)[C@@]2(C)CC[C@H](O[C@@H]3O[C@H](CO)[C@@H](O)[C@H](O)[C@H]3O)C=C12 is ____.
169 °C

Fill blank: measured melting point of the compound C=C(CC)CC is ____.
-132 °C

Fill blank: measured melting point of the compound C[C@H]1[C@H]2CC[C@H]3[C@@H]4CC=C5C[C@@H](N(C)C)CC[C@]5(C)[C@H]4CC[C@]23CN1C is ____.
126 °C

Fill blank: measured melting point of the compound CCC(C)Nc1c([N+](=O)[O-])cc(C(C)(C)C)cc1[N+](=O)[O-] (stereo not given) is ____.
60 °C

Fill blank: measured melting point of the compound Clc1cncc(Cl)c1 is ____.
66 °C

Fill blank: measured melting point of the compound CCCCCCCCCc1ccc2ccccc2c1 is ____.
12 °C

Fill blank: measured melting point of the compound Cc1c(Br)c(Br)c(Br)c(Br)c1Br is ____.
288 °C

Fill blank: measured melting point of the compound CC(C)(C)c1ccc(CSc2cnn(C(C)(C)C)c(=O)c2Cl)cc1 is ____.
112 °C
